Numbers sourced from paper PMC5540273.

Tested on: PAK6;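 further: KINOMEscan kinase panel screen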
Details: concentration: 1 μM, replicates: in singlicate; n = 1
Measurement name: %Inh (%)

- c1ccc(-c2cnc3nccnn23)cc1 [AH20685]: 0
- Cl.c1ccc(-c2ccc3c(Nc4ccc5[nH]ccc5c4)ccnc3c2)nc1 [GW440138]: 0
- CC(C)c1nc(-c2cccc(NS(=O)(=O)c3c(F)cccc3F)c2F)c(-c2ccnc(Nc3ccc(N4CCOCC4)nc3)n2)s1 [GSK2008607]: 9
- CC(=O)N1CCN(c2ccc(Nc3nccc(-c4sc(C(C)C)nc4-c4cccc(NS(=O)(=O)c5cccc(Cl)c5)c4)n3)cn2)CC1 [GSK1660437]: 0
